The origin of these recorded values is ChEMBL document CHEMBL3885861.

species on record: Rattus norvegicus; test: Open TG-GATES - Regimen: Single; format: toxicity, organism-based, Sprague-Dawley; set-up: regimen Single, gender Male, age 6 weeks; settings: in vivo, po, 100 mg/kg, 3 h, tissue Plasma, route gavage, dose level High
property.measured: ALP (IU/L)
Write down the numeric answer in IU/L and omit the unit.

Query "CN(C)CCCN1c2ccccc2CCc2ccc(Cl)cc21" yields ALP of 1835

Query "CC1=C(/C=C/C(C)=C/C=C/C(C)=C/CO)C(C)(C)CCC1" yields ALP of 1910.2

Query "CN(C)CCN(Cc1cccs1)c1ccccn1" yields ALP of 1601.8

Moving on to another molecule below.
Query "CN(C)CCCN1c2ccccc2CCc2ccccc21" yields ALP of 1336.2
